conditions: 318.15 K; 5000 kPa; Liquid; Vibrating tube method
measure name: mass density (kg/m3)

input smiles	measured number
CCCC(C)C	636.32
CC(C)C(C)C	644.77
CCC(C)CC	647.27
CCC(C)(C)C	632.33

----------
conditions: 308.15 K; 40000 kPa; Liquid; Vibrating tube method
measure name: mass density (kg/m3)

input smiles	mass density (kg/m3)
CCC(C)(C)C	676.55
CCC(C)CC	688.33
CCCC(C)C	678.4
CC(C)C(C)C	686.72

----------
settings: 283.15 K; 60000 kPa; Liquid; Vibrating tube method
measure name: mass density (kg/m3)

input smiles	mass density, kg/m3
CCCC(C)C	708.98
CCC(C)(C)C	707.71
CC(C)C(C)C	717.08
CCC(C)CC	718.5

Where do the numbers come from? From the NIST ThermoML archive (doi:10.1016/j.fluid.2012.11.013).
